From: ChEMBL document CHEMBL1150520

Molecular target: Adrenergic receptor alpha-1 (Homo sapiens, UniProt P35348+P25100+P35368)
Sequence (P35348 whole entry): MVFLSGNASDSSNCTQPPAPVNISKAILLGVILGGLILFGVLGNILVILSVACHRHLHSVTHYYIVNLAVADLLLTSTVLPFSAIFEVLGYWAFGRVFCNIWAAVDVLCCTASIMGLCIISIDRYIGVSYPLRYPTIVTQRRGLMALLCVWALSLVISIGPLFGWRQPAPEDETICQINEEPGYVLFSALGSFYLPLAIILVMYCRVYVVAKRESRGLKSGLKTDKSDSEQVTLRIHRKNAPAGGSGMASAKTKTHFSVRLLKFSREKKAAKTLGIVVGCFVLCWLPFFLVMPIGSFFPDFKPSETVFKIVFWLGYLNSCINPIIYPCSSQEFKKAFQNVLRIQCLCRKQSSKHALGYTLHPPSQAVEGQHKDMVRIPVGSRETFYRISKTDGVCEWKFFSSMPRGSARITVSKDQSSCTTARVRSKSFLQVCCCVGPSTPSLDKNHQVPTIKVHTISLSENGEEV
Sequence (P25100 whole entry): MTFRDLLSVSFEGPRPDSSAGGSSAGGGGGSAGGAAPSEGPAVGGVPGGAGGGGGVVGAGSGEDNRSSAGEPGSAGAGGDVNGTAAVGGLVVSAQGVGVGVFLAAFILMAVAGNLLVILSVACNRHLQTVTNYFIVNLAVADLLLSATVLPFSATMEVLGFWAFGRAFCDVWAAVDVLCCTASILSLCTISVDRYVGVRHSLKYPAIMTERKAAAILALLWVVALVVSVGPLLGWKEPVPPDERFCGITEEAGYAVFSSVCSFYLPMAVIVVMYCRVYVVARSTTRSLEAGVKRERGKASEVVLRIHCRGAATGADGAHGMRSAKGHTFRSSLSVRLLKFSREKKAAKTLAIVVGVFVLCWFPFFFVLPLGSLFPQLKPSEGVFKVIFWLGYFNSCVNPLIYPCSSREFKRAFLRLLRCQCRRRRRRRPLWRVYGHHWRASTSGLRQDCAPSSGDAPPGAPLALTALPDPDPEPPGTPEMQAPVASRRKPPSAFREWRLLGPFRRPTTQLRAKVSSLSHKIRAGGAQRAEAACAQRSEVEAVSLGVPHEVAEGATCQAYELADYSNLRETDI
Sequence (P35368 whole entry): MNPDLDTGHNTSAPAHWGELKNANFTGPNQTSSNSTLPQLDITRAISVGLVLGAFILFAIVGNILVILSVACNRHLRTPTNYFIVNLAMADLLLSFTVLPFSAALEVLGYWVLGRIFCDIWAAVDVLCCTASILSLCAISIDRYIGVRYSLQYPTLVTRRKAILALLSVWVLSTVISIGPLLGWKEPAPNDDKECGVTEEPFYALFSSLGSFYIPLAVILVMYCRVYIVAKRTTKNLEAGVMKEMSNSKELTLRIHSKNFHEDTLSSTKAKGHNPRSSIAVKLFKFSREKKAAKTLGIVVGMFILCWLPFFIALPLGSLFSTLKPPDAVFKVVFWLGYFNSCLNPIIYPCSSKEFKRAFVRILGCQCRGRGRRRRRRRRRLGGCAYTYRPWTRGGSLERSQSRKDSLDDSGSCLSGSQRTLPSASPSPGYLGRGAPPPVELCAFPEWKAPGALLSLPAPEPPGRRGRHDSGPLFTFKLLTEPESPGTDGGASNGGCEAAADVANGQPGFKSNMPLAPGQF
Assay: Binding affinity for Alpha-1 adrenergic receptor of human cerebral cortex membrane
Type: tissue-based
# strict inequality: Ki < 2 µM yields yes, everything else yields no

Sample smiles: CN(C1=NCCN1)c1ccc2c(c1)OCCO2
Label value: no

Sample smiles: COc1ccc(NC2=NCCN2)c(C)c1OC
Label value: yes

Sample smiles: C/N=C(\NC)Nc1ccc2nccnc2c1Br
Label value: no

Sample smiles: N=C(N)Nc1ccc2nccnc2c1Br
Label value: no

Sample smiles: Cc1c(NC2=NCCN2)ccc2c1OCCO2
Label value: yes

Sample smiles: Cc1ccccc1N=C1NCCN1
Label value: no

Sample smiles: c1cc2c(cc1NC1=NCCN1)OCCO2
Label value: no

Sample smiles: Cc1c(NC2=NCCN2)ccc2c1NCCN2
Label value: no
